This collection of values is drawn from patent US20220378802A1.

- experiment_notes: Pharmacokinetics of 25HC3S in alcoholic hepatitis patients (Phase 2a, IV infusion)
- Assay type: in vivo, human
- assay_setup: human, plasma, iv, 90 mg, Moderate AH, cohort 2A, 90 mg IV infusion, N=3; read-out: T½ (converted)
quantity_kind: half-life (h)
Numbers only, in h.

Query string: Please look up its half-life: C[C@H](CCCC(C)(C)O)[C@H]1CC[C@H]2[C@@H]3CC=C4C[C@@H](OS(=O)(=O)O)CC[C@]4(C)[C@H]3CC[C@]12C [25HC3S, 5-cholesten-3,25-diol, 3-sulfate]
Result string: 2.7

* * *

- experiment_notes: Pharmacokinetics of 25HC3S in alcoholic hepatitis patients (Phase 2a, IV infusion)
- Assay type: in vivo, human
- assay_setup: human, plasma, iv, 150 mg, Severe AH, cohort 3B, 150 mg IV infusion, N=4
- Experimental: All patients received IV infused 25HC3S (at 30, 90, or 150 mg) on Day 1 and Day 4 (if still hospitalized), and were followed for 28-days. […] After completing the dosing, a Dose Escalation Committee (DEC) reviewed safety, tolerability and pharmacokinetic (PK) data from all 4 patients and determined that it was safe to move forward to dose 4 severe AH patients (Part B) at the same dose level, 30 mg, as well as escalating the dose level to 90 mg in moderate patients (Part A). […]
quantity_kind: AUC(0-inf) (ng·h/mL)
Numbers only, in ng·h/mL.

Query string: Please look up its AUC(0-inf): C[C@H](CCCC(C)(C)O)[C@H]1CC[C@H]2[C@@H]3CC=C4C[C@@H](OS(=O)(=O)O)CC[C@]4(C)[C@H]3CC[C@]12C [25HC3S, 5-cholesten-3,25-diol, 3-sulfate]
Result string: 27100

* * *

- experiment_notes: Pharmacokinetics of 25HC3S in alcoholic hepatitis patients (Phase 2a, IV infusion)
- Type: in vivo, human
- assay_setup: human, plasma, iv, 90 mg, Severe AH, cohort 2B, 90 mg IV infusion, N=4; read-out: CL (converted)
quantity_kind: clearance (mL/min)
Answers are plain numbers, in mL/min.

Query string: Please look up its clearance: C[C@H](CCCC(C)(C)O)[C@H]1CC[C@H]2[C@@H]3CC=C4C[C@@H](OS(=O)(=O)O)CC[C@]4(C)[C@H]3CC[C@]12C [25HC3S, 5-cholesten-3,25-diol, 3-sulfate]
Result string: 91.7

* * *

- experiment_notes: Pharmacokinetics of 25HC3S in healthy subjects (earlier study)
- Type: in vivo, human
- assay_setup: human, plasma; Healthy subjects (N = 5), single dose of 150 mg; read-out: T½ (converted)
quantity_kind: half-life (h)
Give bare numbers, in h.

Query string: Please look up its half-life: C[C@H](CCCC(C)(C)O)[C@H]1CC[C@H]2[C@@H]3CC=C4C[C@@H](OS(=O)(=O)O)CC[C@]4(C)[C@H]3CC[C@]12C [25HC3S, 5-cholesten-3,25-diol, 3-sulfate]
Result string: 1.6

* * *

- experiment_notes: Pharmacokinetics of 25HC3S in alcoholic hepatitis patients (Phase 2a, IV infusion)
- Assay type: in vivo, human
- assay_setup: human, plasma, iv, 150 mg, Severe AH, cohort 3B, 150 mg IV infusion, N=4; read-out: T½ (converted)
quantity_kind: half-life (h)
Answers are plain numbers, in h.

Query string: Please look up its half-life: C[C@H](CCCC(C)(C)O)[C@H]1CC[C@H]2[C@@H]3CC=C4C[C@@H](OS(=O)(=O)O)CC[C@]4(C)[C@H]3CC[C@]12C [25HC3S, 5-cholesten-3,25-diol, 3-sulfate]
Result string: 3.4
